The reported numbers originate from ChEMBL document CHEMBL4350965.

# ASSAY_PROCEDURE: Clearance in Sprague-Dawley rat at 2.5 mg/kg, iv by LC-MS/MS analysis
# Type: ADME, organism-based
# MEASUREMENT_PARAMETERS: in vivo
PROPERTY_MEASURED: clearance (mL/min/kg)
Just the number please, in mL/min/kg, no unit attached.

Consider the compound "CC(=O)c1cnc(N)nc1N1CC[C@H]1c1nn2ccc(Cl)c2c(=O)n1-c1ccccc1" and give its recorded clearance. 12.7

====

# ASSAY_PROCEDURE: Volume of distribution at steady state in Beagle dog at 1 mg/kg, iv by LC-MS/MS analysis
# Assay type: ADME, organism-based, Canis lupus familiaris
# MEASUREMENT_PARAMETERS: in vivo, read-out: Vdss
PROPERTY_MEASURED: Vd (L/kg)
Just the number please, in L/kg, no unit attached.

Consider the molecule "CC(=O)c1cnc(N)nc1N1CC[C@H]1c1nn2ccc(Cl)c2c(=O)n1-c1ccccc1" and give its recorded Vd. 1.7

====

# TESTED_ON: PI3-kinase p110-alpha/p85-alpha (Homo sapiens, UniProt P42336)
# Sequence (P42336 whole entry, one chain of several): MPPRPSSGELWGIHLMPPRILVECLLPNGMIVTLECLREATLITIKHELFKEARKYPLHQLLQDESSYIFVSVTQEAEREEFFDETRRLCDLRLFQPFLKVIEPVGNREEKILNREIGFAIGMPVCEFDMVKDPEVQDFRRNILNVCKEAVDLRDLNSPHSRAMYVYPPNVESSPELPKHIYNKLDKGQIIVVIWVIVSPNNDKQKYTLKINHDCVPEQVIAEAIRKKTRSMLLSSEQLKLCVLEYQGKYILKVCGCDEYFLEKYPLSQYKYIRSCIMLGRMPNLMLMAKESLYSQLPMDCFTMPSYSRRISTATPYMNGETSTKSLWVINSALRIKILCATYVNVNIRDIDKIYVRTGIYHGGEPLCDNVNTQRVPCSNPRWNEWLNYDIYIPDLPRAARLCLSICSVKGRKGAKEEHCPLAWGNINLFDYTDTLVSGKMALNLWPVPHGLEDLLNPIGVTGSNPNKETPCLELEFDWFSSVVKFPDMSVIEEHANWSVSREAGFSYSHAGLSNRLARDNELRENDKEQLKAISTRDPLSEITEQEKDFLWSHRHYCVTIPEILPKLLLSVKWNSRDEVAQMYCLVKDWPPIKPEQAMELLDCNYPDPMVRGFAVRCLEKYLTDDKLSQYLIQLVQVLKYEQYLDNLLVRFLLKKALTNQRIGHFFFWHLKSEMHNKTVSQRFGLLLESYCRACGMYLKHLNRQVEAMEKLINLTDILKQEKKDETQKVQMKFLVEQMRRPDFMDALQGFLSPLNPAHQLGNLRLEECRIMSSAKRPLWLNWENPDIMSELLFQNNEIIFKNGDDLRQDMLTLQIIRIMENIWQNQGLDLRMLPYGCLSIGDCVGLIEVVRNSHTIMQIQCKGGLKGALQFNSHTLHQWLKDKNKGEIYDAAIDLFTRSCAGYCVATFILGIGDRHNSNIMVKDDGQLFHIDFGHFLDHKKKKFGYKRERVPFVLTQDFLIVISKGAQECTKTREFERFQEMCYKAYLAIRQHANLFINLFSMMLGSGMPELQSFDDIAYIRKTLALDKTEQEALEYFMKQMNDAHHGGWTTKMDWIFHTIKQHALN
# ASSAY_PROCEDURE: Inhibition of recombinant human full-length N-terminal His-tagged PI3K p110alpha/p85alpha expressed in baculovirus expression system at 1 uM using PIP2 as substrate measured after 80 mins by transcreener fluorescence polarization assay relative to control
Please go through the items and note down their inhibition at 1 µM.
Just the number please, in %, no unit attached.

Consider the molecule "O=c1c2c(Cl)ccn2nc([C@@H]2CCN2c2ncnc3[nH]cnc23)n1-c1ccccc1" and give its recorded inhibition at 1 µM. -1.5

Consider the molecule "CC(=O)c1c[nH]c2ncnc(N3CC[C@H]3c3nn4ccc(Cl)c4c(=O)n3-c3ccccc3)c12" and give its recorded inhibition at 1 µM. 8.4

Consider the molecule "N#Cc1c[nH]c2ncnc(N3CC[C@H]3c3nn4ccc(Cl)c4c(=O)n3-c3ccccc3)c12" and give its recorded inhibition at 1 µM. -0.3

====

# ASSAY_PROCEDURE: Cmax in Sprague-Dawley rat at 10 mg/kg, po by LC-MS/MS analysis
# Format: ADME, organism-based
# Parameters: dose 10 mg/kg, route oral
# MEASUREMENT_PARAMETERS: in vivo
PROPERTY_MEASURED: Cmax (ng/mL)
Just the number please, in ng/mL, no unit attached.

Consider the molecule "CC(=O)c1cnc(N)nc1N1CC[C@H]1c1nn2ccc(Cl)c2c(=O)n1-c1ccccc1" and give its recorded Cmax. 2730

====

Please go through the items and note down their remaining at 0.5 h, 1 µM.
# ASSAY_PROCEDURE: Stability in rat liver microsomes assessed as parent compound remaining at 1 uM measured after 30 mins in presence of NADPH generating system
Just the number please, in %, no unit attached.

Consider the compound "N#Cc1cnc(N)nc1N1CC[C@H]1c1nn2ccc(Cl)c2c(=O)n1-c1ccccc1" and give its recorded remaining at 0.5 h, 1 µM. 77.5

Consider the compound "O=c1c2c(Cl)ccn2nc([C@@H]2CCCN2c2ncnc3[nH]cnc23)n1-c1cccc(F)c1" and give its recorded remaining at 0.5 h, 1 µM. 34.6

Consider the compound "CC(=O)c1c[nH]c2ncnc(N3CC[C@H]3c3nn4ccc(Cl)c4c(=O)n3-c3ccccc3)c12" and give its recorded remaining at 0.5 h, 1 µM. 77.2

Consider the compound "N#Cc1cnc(N)nc1N1CCC[C@H]1c1nn2ccc(Cl)c2c(=O)n1-c1ccccc1" and give its recorded remaining at 0.5 h, 1 µM. 23.5

Consider the compound "O=c1c2c(F)ccn2nc([C@@H]2CCCN2c2ncnc3[nH]cnc23)n1-c1ccccc1" and give its recorded remaining at 0.5 h, 1 µM. 51.8

====

# TESTED_ON: PI3K p110 beta/p85 alpha (Homo sapiens, UniProt P42338)
# Sequence (P27986 whole entry): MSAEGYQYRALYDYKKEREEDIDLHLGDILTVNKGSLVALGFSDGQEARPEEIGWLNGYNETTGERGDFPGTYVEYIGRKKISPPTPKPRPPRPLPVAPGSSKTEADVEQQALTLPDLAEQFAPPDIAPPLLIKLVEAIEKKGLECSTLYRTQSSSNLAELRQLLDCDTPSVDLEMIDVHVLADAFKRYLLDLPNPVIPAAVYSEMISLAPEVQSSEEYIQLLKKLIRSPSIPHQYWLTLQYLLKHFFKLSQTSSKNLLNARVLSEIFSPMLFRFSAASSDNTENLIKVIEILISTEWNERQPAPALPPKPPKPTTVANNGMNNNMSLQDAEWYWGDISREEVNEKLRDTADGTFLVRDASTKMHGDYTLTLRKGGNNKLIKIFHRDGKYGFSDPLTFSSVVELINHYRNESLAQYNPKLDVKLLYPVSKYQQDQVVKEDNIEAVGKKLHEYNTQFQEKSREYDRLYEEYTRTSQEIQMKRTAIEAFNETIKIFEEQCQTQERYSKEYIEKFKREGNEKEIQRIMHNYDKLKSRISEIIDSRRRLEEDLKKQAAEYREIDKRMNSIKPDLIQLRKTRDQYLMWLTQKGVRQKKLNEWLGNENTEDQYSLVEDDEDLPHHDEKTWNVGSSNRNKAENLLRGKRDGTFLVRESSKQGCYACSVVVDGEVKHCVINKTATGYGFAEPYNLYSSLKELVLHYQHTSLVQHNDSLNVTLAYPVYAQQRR
# Sequence (P42338 whole entry): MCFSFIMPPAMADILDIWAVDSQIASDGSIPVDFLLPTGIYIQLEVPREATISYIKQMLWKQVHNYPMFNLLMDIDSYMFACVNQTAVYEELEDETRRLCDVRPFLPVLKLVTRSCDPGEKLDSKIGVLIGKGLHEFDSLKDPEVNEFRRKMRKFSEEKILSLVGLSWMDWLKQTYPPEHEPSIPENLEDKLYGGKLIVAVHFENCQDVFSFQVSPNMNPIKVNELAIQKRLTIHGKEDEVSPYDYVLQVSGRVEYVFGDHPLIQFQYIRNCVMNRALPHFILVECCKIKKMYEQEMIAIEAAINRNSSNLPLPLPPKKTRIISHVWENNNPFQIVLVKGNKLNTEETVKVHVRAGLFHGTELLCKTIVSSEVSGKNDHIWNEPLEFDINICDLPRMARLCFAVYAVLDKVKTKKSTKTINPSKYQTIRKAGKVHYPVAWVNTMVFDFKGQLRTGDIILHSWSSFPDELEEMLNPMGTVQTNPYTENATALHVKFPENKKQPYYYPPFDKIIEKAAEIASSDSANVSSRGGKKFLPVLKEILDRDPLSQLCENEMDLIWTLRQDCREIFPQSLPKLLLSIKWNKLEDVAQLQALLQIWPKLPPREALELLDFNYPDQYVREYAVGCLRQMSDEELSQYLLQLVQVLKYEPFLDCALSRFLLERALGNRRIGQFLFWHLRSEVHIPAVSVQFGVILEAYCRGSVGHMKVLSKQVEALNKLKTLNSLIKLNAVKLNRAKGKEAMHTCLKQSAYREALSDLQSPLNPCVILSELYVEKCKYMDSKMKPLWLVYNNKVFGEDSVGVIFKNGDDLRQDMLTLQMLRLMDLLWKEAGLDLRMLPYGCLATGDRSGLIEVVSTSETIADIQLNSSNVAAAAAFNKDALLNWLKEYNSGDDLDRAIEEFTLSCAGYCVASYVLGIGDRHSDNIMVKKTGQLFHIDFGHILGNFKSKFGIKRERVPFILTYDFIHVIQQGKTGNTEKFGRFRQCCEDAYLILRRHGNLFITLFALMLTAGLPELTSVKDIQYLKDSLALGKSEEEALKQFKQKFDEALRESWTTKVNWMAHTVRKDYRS
# ASSAY_PROCEDURE: Inhibition of N-terminal His6-tagged recombinant full length human p110beta/untagged recombinant full length human p85alpha expressed in baculovirus infected Sf21 insect cells at 1 uM using PIP2 as substrate measured after 80 mins by transcreener fluorescence polarization assay relative to control
Assign class by inhibition at 1 µM: not lower than 50% means TRUE; lower than 50% means FALSE.

Quick check: does "C#Cc1cnc(N)nc1N1CC[C@H]1c1nn2ccc(Cl)c2c(=O)n1-c1ccccc1" have inhibition at 1 µM greater than or equal to 50%? FALSE

Quick check: does "O=c1c2c(F)ccn2nc([C@@H]2CCCN2c2ncnc3[nH]cnc23)n1-c1ccccc1" have inhibition at 1 µM greater than or equal to 50%? TRUE

Quick check: does "N#Cc1cnc(N)nc1N1CC[C@H]1c1nn2ccc(Cl)c2c(=O)n1-c1ccccc1" have inhibition at 1 µM greater than or equal to 50%? FALSE

Quick check: does "CC(=O)c1c[nH]c2ncnc(N3CC[C@H]3c3nn4ccc(Cl)c4c(=O)n3-c3ccccc3)c12" have inhibition at 1 µM greater than or equal to 50%? FALSE

Quick check: does "Nc1ncc(Cl)c(N2CC[C@H]2c2nn3ccc(Cl)c3c(=O)n2-c2ccccc2)n1" have inhibition at 1 µM greater than or equal to 50%? FALSE

====

# ASSAY_PROCEDURE: AUC in Sprague-Dawley rat at 10 mg/kg, po by LC-MS/MS analysis
# Type: ADME, organism-based
# MEASUREMENT_PARAMETERS: in vivo
PROPERTY_MEASURED: AUC (ng·h/mL)
Just the number please, in ng·h/mL, no unit attached.

Consider the compound "CC(=O)c1cnc(N)nc1N1CC[C@H]1c1nn2ccc(Cl)c2c(=O)n1-c1ccccc1" and give its recorded AUC. 14300
